- Assay info: Cmax in C57BL/6 mouse at 25 mg/kg, po
- Assay type: ADME, organism-based
- Design: dose 25 mg/kg, route po
- Assay setup: in vivo
Metric name: Cmax (ng/mL)

> print(dat)
                                   compound  metric.name  measured.result
1  c1cc(C2CCc3cc(C4SCCCS4)ccc3O2)ccn1 (stereo unspecified)         Cmax             7630

* * *

- Test system: L6
- Assay info: Induction of glucose uptake in rat L6 cells assessed as fold increase by measuring 2-NBDG uptake at 0.25 uM preincubated in high glucose medium for 48 hrs followed by compound addition and measured after 24 hrs
- Type: functional
Metric name: fold change (FC)

> print(dat)
                                    molecule  measured.result
 1        c1ccc(-c2cc3cc(C4SCCCS4)ccc3o2)cc1                1
 2  O=C(O)CCSC(SCCC(=O)O)c1ccc2c(c1)CCC(c1ccccc1)O2 (stereo unspecified)              0.9
 3  c1coc(C2CCc3cc(C4SCCCS4)ccc3O2)c1 (stereo unspecified)                1
 4  OCCOCCSC(SCCOCCO)c1ccc2c(c1)CCC(c1ccccc1)O2 (stereo unspecified)                1
 5  CC(C)(C)OC(=O)NCCSC(SCCNC(=O)OC(C)(C)C)c1ccc2c(c1)CCC(c1ccccc1)O2 (stereo unspecified)                1
 6  c1ccc(C2COc3cc(C4SCCCS4)ccc3O2)cc1 (stereo unspecified)                1
 7       c1ccc(-c2cc3cc(C4SCCCCS4)ccc3o2)cc1                1
 8  OCCSC(SCCO)c1ccc2c(c1)CCC(c1cccnc1)O2 (stereo unspecified)              1.4
 9  c1ccc(C2COc3cc(C4SCCCCS4)ccc3O2)cc1 (stereo unspecified)                1
10  COc1ccc(C2CCc3cc(C4SCCCCS4)ccc3O2)cc1 (stereo unspecified)              1.4
11  OCCSC(SCCO)c1ccc2c(c1)OCC(c1ccccc1)O2 (stereo unspecified)              1.1

* * *

- Assay info: Half life in C57BL/6 mouse at 25 mg/kg, po
- Type: ADME, organism-based
- Assay setup: in vivo
Metric name: half-life (h)

> print(dat)
                                   molecule  quantity.unit  measured.result
1  c1cc(C2CCc3cc(C4SCCCS4)ccc3O2)ccn1 (stereo unspecified)              h             1.11

* * *

- Assay info: Clearance in C57BL/6 mouse at 5 mg/kg, iv
- Type: ADME, organism-based
- Assay setup: in vivo
Metric name: clearance (mL/min/kg)

> print(dat)
                                   compound  metric.name  quantity.unit  measured.result
1  c1cc(C2CCc3cc(C4SCCCS4)ccc3O2)ccn1 (stereo unspecified)    clearance      mL/min/kg             31.2

* * *

- Assay info: Volume of distribution at steady state in C57BL/6 mouse at 5 mg/kg, iv
- Type: ADME, organism-based
- Assay setup: in vivo, read-out: Vdss
Metric name: Vd (L/kg)

> print(dat)
                                   compound  metric.name  measured.result
1  c1cc(C2CCc3cc(C4SCCCS4)ccc3O2)ccn1 (stereo unspecified)           Vd             1.23

* * *

- Test system: L6
- Assay info: Induction of glucose uptake in rat L6 cells assessed as fold increase by measuring 2-NBDG uptake at 2.5 uM preincubated in high glucose medium for 48 hrs followed by compound addition and measured after 24 hrs
- Format: functional
Lab note: anything with fold change (FC) at or over 1 counts as condition met; the rest go in condition not met.

> print(dat)
                                   compound                cat
1  OCCSC(SCCO)c1ccc2c(c1)OCC(c1ccccc1)O2 (stereo not given)      condition met
2  OCCOCCSC(SCCOCCO)c1ccc2c(c1)CCC(c1ccccc1)O2 (stereo not given)      condition met
3  O=C(O)CCSC(SCCC(=O)O)c1ccc2c(c1)CCC(c1ccccc1)O2 (stereo not given)      condition met
4  COc1ccc(C2CCc3cc(C4SCCCCS4)ccc3O2)cc1 (stereo not given)      condition met
5  OCCSC(SCCO)c1ccc2c(c1)CCC(c1cccnc1)O2 (stereo not given)      condition met
6  O[C@H]1CS[C@H](c2ccc3c(c2)CCC(c2ccccc2)O3)SC1 (stereo not given in full)  condition not met
7  c1cc(C2CCc3cc(C4SCCCS4)ccc3O2)ccn1 (stereo not given)      condition met
8  O=C(NCCSC(SCCNC(=O)OCc1ccccc1)c1ccc2c(c1)CCC(c1ccccc1)O2)OCc1ccccc1 (stereo not given)      condition met
9  c1ccc(C2CCc3cc(C4NCCS4)ccc3O2)cc1 (stereo not given)  condition not met

* * *

Below is a list of entries, each paired with its recorded fold change (FC) value.
- Test system: L6
- Assay info: Induction of glucose uptake in rat L6 cells assessed as fold increase by measuring 2-NBDG uptake at 0.25 uM preincubated in high glucose medium for 48 hrs followed by compound addition and measured after 24 hrs
- Format: functional
Metric name: fold change (FC)

> print(dat)
                                   compound       metric.name  measured.result
1  c1ccc(C2CCc3cc(C4NCCS4)ccc3O2)cc1 (stereo unspecified)  fold change (FC)                1
2  c1cc(C2CCc3cc(C4SCCCS4)ccc3O2)ccn1 (stereo unspecified)  fold change (FC)              1.8
3  c1cncc(C2CCc3cc(C4SCCCS4)ccc3O2)c1 (stereo unspecified)  fold change (FC)                1
4  O=C(NCCSC(SCCNC(=O)OCc1ccccc1)c1ccc2c(c1)CCC(c1ccccc1)O2)OCc1ccccc1 (stereo unspecified)  fold change (FC)              0.9
5  O[C@H]1CS[C@@H](c2ccc3c(c2)CCC(c2ccccc2)O3)SC1 (stereo partly specified)  fold change (FC)              1.1
6  OCCSC(SCCO)c1ccc2c(c1)CCC(c1ccco1)O2 (stereo unspecified)  fold change (FC)              1.1

* * *

- Assay info: Tmax in C57BL/6 mouse at 25 mg/kg, po
- Type: ADME, organism-based
- Assay setup: in vivo
Metric name: Tmax (min)

> print(dat)
                                   molecule  quantity.unit  measured.result
1  c1cc(C2CCc3cc(C4SCCCS4)ccc3O2)ccn1 (stereo unspecified)            min               30

* * *

- Assay info: Half life in C57BL/6 mouse blood
- Assay type: ADME, tissue-based
Metric name: half-life

> print(dat)
                                   molecule  metric.name  measured.result
1  c1cc(C2CCc3cc(C4SCCCS4)ccc3O2)ccn1 (stereo unspecified)    half-life           1.11 h
